The reported measurements were obtained from the RNAGym collection of RNA variant scans (doi:10.1038/nmeth.2970).

B1: NELF-E aptamer (parent)
chain: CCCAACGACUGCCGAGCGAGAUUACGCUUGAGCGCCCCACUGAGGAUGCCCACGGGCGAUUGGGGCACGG

variants of: B1; assay: HiTS-RAP; details: with NELF-E (Drosophila)
pKd: −log10 of the molar value.
measure name: pKd

residue_string=CCCGACGACUGCCGAGCGAGAUUACGCUUGAGCACCCCACUGAGGAUGCCCACGGGCGAUUGGGGCACGG measure_name=pKd test_result=8.13
residue_string=CCCAACGACUGCCGAGCGAGAGUACGCUUGAGCGCCCCACUGAGGAUGCCCACGGGCGAUUGGUGCACGG measure_name=pKd test_result=8.20
residue_string=CCCAACGACUUCCGAGCGAGAUUACGCUUGAGCGCCCCACUGAGGAUGCCCACGGGCGAUUGUGGCACGG measure_name=pKd test_result=8.08
residue_string=CCCAACGACCUCCGAGCGAGAUUACGCUUGAGCGCCCCACUGAGGAUGCCCACGGGCGAUUGGGGCACGG measure_name=pKd test_result=8.23
residue_string=CCCAACGAGUGCCGAGCGAGAUUACGCUUGAGCGCCCCGCUGAGGAUGCCCACGGGCGAUUGGGGCACGG measure_name=pKd test_result=8.02
residue_string=CCCUACGACUGCCGAGCGAGACUACGCUUGAGCGCCCCACUGAGGAUGCCCACGGGCGAUUGGGGCACGG measure_name=pKd test_result=8.22
residue_string=CCCGACGACUGCCGAGCGAGAUUACGCCUGAGCGCCCCACUGAGGAUGCCCACGGGCGAUUGGGGCACGG measure_name=pKd test_result=8.04
residue_string=CCCAAGGACUGCCGAGCGUGAUUACGCUUGAGCGCCCCACUGAGGAUGCCCACGGGCGAUUGGGGCACGG measure_name=pKd test_result=8.23
residue_string=CCCAACUAGUGCCGAGCGAGAUUACGCUUGAGCGCCCCACUGAGGAUGCCCACGGGCGAUUGGGGCACGG measure_name=pKd test_result=8.20
